Origin of values: paper PMC10046369

biological target: P2Y1 (h) (Homo sapiens, UniProt P47900); experiment: cell-based
Sequence (P47900 whole entry): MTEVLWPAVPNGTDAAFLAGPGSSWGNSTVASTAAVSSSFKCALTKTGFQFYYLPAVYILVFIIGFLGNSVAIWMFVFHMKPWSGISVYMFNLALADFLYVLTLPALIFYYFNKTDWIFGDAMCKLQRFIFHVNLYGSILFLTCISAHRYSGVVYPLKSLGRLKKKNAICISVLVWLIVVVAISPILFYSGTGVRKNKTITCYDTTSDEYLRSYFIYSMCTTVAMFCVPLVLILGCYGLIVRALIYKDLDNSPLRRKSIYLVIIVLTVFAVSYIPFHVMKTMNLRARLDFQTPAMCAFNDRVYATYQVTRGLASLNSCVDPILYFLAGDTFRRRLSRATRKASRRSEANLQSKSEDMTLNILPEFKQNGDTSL
MEASUREMENT_TYPE: pIC50
Please report pIC50 as the negative decimal logarithm of the molar concentration, giving only the number.

Any idea what pIC50 came out for `CNc1nc(I)nc2c1ncn2[C@H]1C[C@H](OP(=O)(O)O)[C@]2(COP(=O)(O)O)C[C@H]12` on P2Y1 (h) (Homo sapiens, UniProt P47900)? 8.72

* * *

target: human dopamine transporter (hDAT) (Homo sapiens)
Sequence (Q01959 whole entry): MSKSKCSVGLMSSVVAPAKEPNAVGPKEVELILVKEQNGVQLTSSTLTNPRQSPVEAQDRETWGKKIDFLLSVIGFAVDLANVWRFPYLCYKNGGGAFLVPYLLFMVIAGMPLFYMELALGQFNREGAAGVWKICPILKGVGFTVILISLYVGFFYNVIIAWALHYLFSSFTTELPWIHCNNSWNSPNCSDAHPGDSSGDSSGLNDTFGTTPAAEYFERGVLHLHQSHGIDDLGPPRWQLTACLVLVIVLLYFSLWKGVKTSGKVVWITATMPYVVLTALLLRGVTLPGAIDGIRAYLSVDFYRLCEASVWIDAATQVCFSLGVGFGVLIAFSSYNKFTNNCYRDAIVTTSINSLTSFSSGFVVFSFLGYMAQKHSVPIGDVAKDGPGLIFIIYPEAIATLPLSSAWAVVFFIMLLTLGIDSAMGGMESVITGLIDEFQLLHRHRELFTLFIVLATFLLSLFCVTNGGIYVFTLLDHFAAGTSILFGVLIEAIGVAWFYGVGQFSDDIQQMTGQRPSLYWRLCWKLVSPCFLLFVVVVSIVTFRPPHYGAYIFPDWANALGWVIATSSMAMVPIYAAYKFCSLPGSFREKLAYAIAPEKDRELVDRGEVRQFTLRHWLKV
MEASUREMENT_TYPE: Ki (nM)
Write the answer as a number in nM, unit excluded.

Any idea what Ki came out for `[O-][S@@+](Cc1cncs1)C(c1ccccc1)c1ccccc1` on human dopamine transporter (hDAT) (Homo sapiens)? 610

* * *

molecular target: UniProtKB P41595; assay: cell-based
Sequence (P41595 whole entry): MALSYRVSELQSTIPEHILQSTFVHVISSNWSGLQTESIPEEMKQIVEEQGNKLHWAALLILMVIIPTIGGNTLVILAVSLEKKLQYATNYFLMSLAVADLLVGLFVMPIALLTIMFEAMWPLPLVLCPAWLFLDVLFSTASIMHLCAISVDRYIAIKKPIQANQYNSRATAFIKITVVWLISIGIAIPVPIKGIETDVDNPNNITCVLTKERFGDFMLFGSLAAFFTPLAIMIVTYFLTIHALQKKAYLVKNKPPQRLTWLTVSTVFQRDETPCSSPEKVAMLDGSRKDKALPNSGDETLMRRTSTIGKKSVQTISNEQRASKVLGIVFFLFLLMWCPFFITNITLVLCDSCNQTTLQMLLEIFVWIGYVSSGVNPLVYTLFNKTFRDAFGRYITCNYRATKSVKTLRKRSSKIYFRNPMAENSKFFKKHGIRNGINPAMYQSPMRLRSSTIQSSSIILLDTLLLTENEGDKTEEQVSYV
MEASUREMENT_TYPE: IC50 (nM)
Write the answer as a number in nM, unit excluded.

Give the measured IC50 of Cn1ccc2cc3c(cc21)CCN3C(=O)Nc1cccnc1 [SB 206553] . 19
